Measurement Target: human MOPr (Homo sapiens)
Sequence (P35372 whole entry): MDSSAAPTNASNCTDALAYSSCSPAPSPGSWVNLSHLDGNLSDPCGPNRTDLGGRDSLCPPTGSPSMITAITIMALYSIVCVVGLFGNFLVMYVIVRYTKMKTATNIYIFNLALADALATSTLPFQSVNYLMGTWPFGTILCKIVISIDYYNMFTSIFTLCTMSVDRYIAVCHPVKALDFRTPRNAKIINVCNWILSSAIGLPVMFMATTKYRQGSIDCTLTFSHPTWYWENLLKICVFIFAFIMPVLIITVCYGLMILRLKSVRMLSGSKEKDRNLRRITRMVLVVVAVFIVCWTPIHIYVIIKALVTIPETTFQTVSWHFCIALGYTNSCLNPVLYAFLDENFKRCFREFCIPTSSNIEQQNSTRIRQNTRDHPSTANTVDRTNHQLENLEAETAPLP
Measurement Notes: BRET1 β-arrestin-2 recruitment assay;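 note: Emax relative to maximal DAMGO-induced BRET as 100%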
Format: cell-based
Design: expressed in transfected cells; host or cells: HEK293 cells stably expressing eYFP-β-arrestin-2, transiently transfected with the Rluc8-MOP plasmid
Measurement Setup: read-out: MOPr (β-arrestin-2) Emax
Starred links: 1 amine or outer side, 2 acyl side, 3 side chain; linkers in the order of their positions; H or OH if unused. Non-standard residues stand in square brackets, D forms with d. Residues, ends and D or L forms follow the SMILES beside them. Nva(5-(4-Bn-piperidin-1-yl)) = N[C@@H](CCCN1CCC(Cc2ccccc2)CC1)C(=O)O; X5 = O=C1[C@@H](N[*:1])Cc2ccccc2CN1CCCC(=O)[*:2]; Dmt = Cc1cc(O)cc(C)c1C[C@H](N)C(=O)O
Measured Parameter: Emax (%)
# output: bare number, implied unit %

Worked set:
# Compound, Measurement Target, Reported
data = [
    ("Cc1cc(O)cc(C)c1C[C@H](N)C(=O)N[C@H](CCCNC(=N)N)C(=O)N[C@H]1Cc2c(ccc3ccccc23)CN(CC(=O)N[C@@H](CCCN2CCC(Cc3ccccc3)CC2)C(=O)N[C@H](C(N)=O)C(C)C)C1=O", "human MOPr (Homo sapiens)", 22),
    ("Cc1cc(O)cc(C)c1C[C@H](N)C(=O)N[C@H](CCCNC(=N)N)C(=O)N[C@H]1Cc2ccccc2CN(CCC(=O)N[C@@H](CCCN2CCC(Cc3ccccc3)CC2)C(=O)N[C@@H](Cc2ccccc2)C(N)=O)C1=O", "human MOPr (Homo sapiens)", 42),
]

Next:
Just so you know, measured Emax for Cc1cc(O)cc(C)c1C[C@H](N)C(=O)N[C@H](CCCNC(=N)N)C(=O)N[C@H]1Cc2ccccc2CN(CCCC(=O)N[C@@H](CCCN2CCC(Cc3ccccc3)CC2)C(=O)N[C@@H](Cc2c[nH]c3ccccc23)C(N)=O)C1=O [DP0022, H-Dmt-D-Arg-AbaGABA-Bpa-Trp-NH2] (H-[Dmt][dR][X5][Nva(5-(4-Bn-piperidin-1-yl))]W-NH2) came out at 30
